GI50 by entry:
Test system: NCI-H522
Experiment: NCI tumour cell line growth inhibition, 48 h
The source made the active and inactive calls. No stated cut-off is given here; in the data, active = GI50 up to about 1.1 µM and inactive = higher.

Below, each entry is followed by its recorded GI50 result.
INSERT INTO results (molecule, reading) VALUES
  ('CCCNC(=O)c1cc(OC)c(OC)cc1NC(=O)C12CC3CC(CC(C3)C1)C2', '12.3 µM (inactive)'),
  ('O=C(Cc1nc2ccccc2o1)C(=O)Nc1cccc(Cl)c1', '> 100 µM (inactive)'),
  ('COc1ccc(OC)c2c1C(=O)C(O)=C(Cl)C2=O', '> 100 µM (inactive)'),
  ('Cc1ccc(C(=O)Nc2ccc(S(=O)(=O)O)c3cc(S(=O)(=O)O)cc(S(=O)(=O)O)c23)cc1NC(=O)Nc1cc(C(=O)Nc2ccc(S(=O)(=O)O)c3cc(S(=O)(=O)O)cc(S(=O)(=O)O)c23)ccc1C', '> 87.5 µM (inactive)'),
  ('OC1(c2ccccc2)CSC2=Nc3ccccc3C3CCN1N23 (centres undefined)', '20 µM (inactive)');

Moving on to the next molecule.
# input Please give the documented GI50 of Clc1ccc(-c2nnc3c4nnc(-c5ccc(Cl)cc5Cl)n4c4ccccc4n23)c(Cl)c1
# output > 100 µM (inactive)

----------
Test system: OVCAR-5
Experiment: NCI tumour cell line growth inhibition, 48 h
The source made the active and inactive calls. No stated cut-off is given here; in the data, active = GI50 up to about 1.1 µM and inactive = higher.
recorded.metric: GI50

INSERT INTO results (compound, reading) VALUES
  ('OC1(c2ccccc2)CSC2=Nc3ccccc3C3CCN1N23 (stereo not given)', '11.1 µM (inactive)'),
  ('C=C1c2nc3ccccc3n2C=C(c2ccc(Cl)cc2)N1c1ccc(OCCN2CCCCC2)cc1', '> 45 µM (inactive)'),
  ('Cc1c([C@H](C)[C@@H]2NC[C@@H](C)C[C@H]2O)ccc2c1C[C@H]1[C@H]2CC=C2C[C@@H](O)CC[C@@]21C', '17.8 µM (inactive)');

# input Please give the documented GI50 of COc1ccc(C(C)NNC(=O)c2ccncc2)cc1F (stereo not given)
# output > 100 µM (inactive)

# input Please give the documented GI50 of O=C1CC(=O)NC(NNS(=O)(=O)c2ccc(Cl)cc2)=N1
# output > 100 µM (inactive)

----------
Tested on: HCT-116
Assay: NCI tumour cell line growth inhibition, 48 h
Calls of active or inactive are those of the source. Cut-off read from the data, not from the text of the source: active = GI50 up to about 1.1 µM and inactive = higher.
GI50 by entry:

Below, each entry is followed by its recorded GI50 result.
INSERT INTO measurements (molecule, assayed_target, recorded_metric, reading) VALUES
  ('O=C1Nc2c(Cl)cc(Cl)cc2/C1=N/NC(=O)c1ccncc1', 'HCT-116', 'GI50', '19.1 µM (inactive)'),
  ('C#C/C=C\CCCC/C=C\C#CC#CCCCC#CC#C[C@H](COS(=O)(=O)O)OS(=O)(=O)O', 'HCT-116', 'GI50', '> 100 µM (inactive)'),
  ('c1csc(C(NC2=NCCO2)C2CC2)c1 (stereo not drawn)', 'HCT-116', 'GI50', '> 100 µM (inactive)'),
  ('Cn1c(=O)c2c(nc3n2CCCC(=O)N3CCCCl)n(C)c1=O', 'HCT-116', 'GI50', '> 100 µM (inactive)'),
  ('Nc1nc(N)c2c(Cl)c(CNc3ccc(C(=O)NC(CC(=O)O)C(=O)O)cc3)ccc2n1 (stereo not drawn)', 'HCT-116', 'GI50', '10.7 µM (inactive)');

# input Please give the documented GI50 of Cc1ccc2nc(SCC(=O)N/N=C3\C(=O)Nc4ccccc43)n(-c3ccccc3)c(=O)c2c1
# output 15.1 µM (inactive)

# input Please give the documented GI50 of COc1ccc(N(C)S(=O)(=O)c2ccccc2)cc1
# output > 100 µM (inactive)

# input Please give the documented GI50 of Cc1cc(C)c2c(c1)N[S@@](=O)S2
# output 17.1 µM (inactive)

# input Please give the documented GI50 of Cc1ccccc1C1OC(=O)c2ccc3ccccc3c21 (stereo not drawn)
# output 2.52 µM (inactive)

# input Please give the documented GI50 of COC(=O)C1Cc2cc3c(cc2C1=O)CCC3 (stereo not drawn)
# output > 100 µM (inactive)

----------
Test system: KM12
Test: NCI tumour cell line growth inhibition, 48 h
Activity calls are given as the source filed them. No stated cut-off is given here; in the data, active = GI50 up to about 1.1 µM and inactive = higher.
Choose one outcome from this list and give only that: yes (1) for active, no (0) for inactive

INSERT INTO assay_data (compound, label_value) VALUES
  ('CCOc1ccc(NC(=O)CC2SC(N)=NC2=O)cc1 (configuration not stated)', 'no (0)'),
  ('CC1=C(C(=O)N(C(C)C)C(C)C)CC(C(=O)N(C(C)C)C(C)C)=C(C)N1', 'no (0)'),
  ('COc1cc(/C=C(\C#N)c2ccccc2)cc(OC)c1', 'no (0)'),
  ('c1cc2nnnn2nc1N1CCCC1', 'no (0)'),
  ('N#Cc1ccccc1NC(=O)C(=O)c1c(O)c2ccccc2oc1=O', 'no (0)');

Now for another entry.
# input What outcome does the record of this test show for O=C(O)CC1(C(=O)O)CCCCC1 ?
# output no (0)

----------
System: HCT-15
recorded.metric: GI50

Below, each entry is followed by its recorded GI50 result.
INSERT INTO results (molecule, assayed_target, recorded_metric, reading) VALUES
  ('NCCCCC(NC(=O)C(N)Cc1ccc(O)cn1)C(=O)O (stereo not drawn)', 'HCT-15', 'GI50', '> 100 µM'),
  ('COC1CC(OC2C(C)OC(OC3C(C)OC(OC4C(O)CC(O[C@H]5CC[C@@]6(C)C(=CC[C@]7(O)[C@@H]6C[C@@H](OC(=O)/C=C/c6ccccc6)[C@@]6(C)[C@]7(O)CC[C@@]6(O)C(C)=O)C5)OC4C)CC3OC)CC2OC)OC(C)C1O (stereo partly drawn)', 'HCT-15', 'GI50', '> 6.25 µM');

Moving on to the next molecule.
# input Find GI50 for Cc1ccc2c(c1)C(=O)C1(C2)Cc2cccc(C)c2C1=O (stereo not drawn) on HCT-15 and write it down.
# output > 100 µM

----------
Test system: NCI-H23
Assay: NCI tumour cell line growth inhibition, 48 h
Activity calls are given as the source filed them. No stated cut-off is given here; in the data, active = GI50 up to about 1.1 µM and inactive = higher.
GI50 by entry:

# input Please give the documented GI50 of c1cc2nnnn2nc1N1CCCC1
# output > 100 µM (inactive)

# input Please give the documented GI50 of COC(=O)c1s/c(=N\C(=S)N(C)C)n(-c2ccc(Cl)cc2)c1C(=O)OC
# output > 100 µM (inactive)

# input Please give the documented GI50 of CCN(CC)CCC(=O)c1ccc(Oc2ccc(Cl)cc2)cc1
# output 17.2 µM (inactive)

----------
System: RXF 393
Test: NCI tumour cell line growth inhibition, 48 h
Active and inactive are the calls of the source. No stated cut-off is given here; in the data, active = GI50 up to about 1.1 µM and inactive = higher.
GI50 by entry:

Below, each entry is followed by its recorded GI50 result.
INSERT INTO results (molecule, recorded_metric, reading) VALUES
  ('COc1cc2c(c(OC)c1OC)-c1ccc(SC)cc1C(=O)CC2', 'GI50', '66.8 µM (inactive)'),
  ('CN(C)/C=C/c1nnc([N+](=O)[O-])s1', 'GI50', '14.7 µM (inactive)'),
  ('CCCCCCCCCCCC[C@H](O)[C@H]1CC[C@H]([C@H](O)CCCC[C@H](O)CCCCC[C@@H](O)CC2=C[C@H](C)OC2=O)O1', 'GI50', '16.6 µM (inactive)'),
  ('Cc1c[nH]c2c(O)cc3c(c12)[C@H](CCl)CN3C(=O)c1cc2cc(NC(=O)Nc3ccc4[nH]c(C(=O)N5C[C@@H](CCl)c6c5cc(O)c5[nH]cc(C)c65)cc4c3)ccc2[nH]1', 'GI50', '> 100 µM (inactive)'),
  ('COc1cccc(-c2nc(-c3cnccn3)n(COCCO)n2)c1', 'GI50', '> 100 µM (inactive)');

# input Please give the documented GI50 of CCOC(=O)c1nc2ccccc2nc1Oc1ccc(OC)cc1
# output > 100 µM (inactive)

# input Please give the documented GI50 of COc1ccc(-c2cc(-c3ccc(Nc4ccnc5cc(C(F)(F)F)ccc45)cc3)nc(N)c2C#N)c2ccccc12
# output > 100 µM (inactive)

# input Please give the documented GI50 of N#Cc1c(O)c(/C=N/c2ccc(Cl)cc2)c(=O)n2c1[nH]c1ccccc12
# output > 100 µM (inactive)

----------
System: CAKI-1
Assay: NCI tumour cell line growth inhibition, 48 h
Active and inactive are the calls of the source. Cut-off read from the data, not from the text of the source: active = GI50 up to about 1.1 µM and inactive = higher. Where a SMILES comes first, the peptide text is derived from it. The star is where a group is joined. Boc = CC(C)(C)OC(=O)*; Bn = c1ccc(C*)cc1
Choose one outcome from this list and give only that: active, inactive

For orientation, consider the following solved cases.
INSERT INTO assay_data (compound, assayed_target, label_value) VALUES
  ('O=C(Cc1nc2ccccc2o1)C(=O)Nc1cccc(Cl)c1', 'CAKI-1', 'inactive'),
  ('COc1ccc(N2C(=O)/C(=C\c3ccccc3)SC2c2cc(OC)c(OC)c(OC)c2)cc1 (stereo not drawn)', 'CAKI-1', 'inactive'),
  ('COC(=O)CC1CN(C(=O)OCc2ccccc2)C(C)(C)O1 (stereo not drawn)', 'CAKI-1', 'inactive'),
  ('CC(=O)OCC1OC(n2cc([N+](=O)[O-])c(=O)[nH]c2=O)C(OC(C)=O)C(OC(C)=O)C1OC(C)=O (stereo not drawn)', 'CAKI-1', 'inactive');

# input What outcome does the record of this test show for CN(Cc1cccc2ccccc12)Cc1cccc2ccccc12 ?
# output inactive

# input What outcome does the record of this test show for C/C=C1/CN2CCC34c5ccccc5N5C(=O)C(C6CC78c9ccccc9N9C(=O)C=CC(C%10CC7N6C/C%10=C/C)C98)=CC(C1CC23)C54 (stereo not drawn) ?
# output inactive

# input What outcome does the record of this test show for NC(CNc1ccc(O)cc1)C(=O)O (stereo not drawn) ?
# output inactive

# input What outcome does the record of this test show for O=C1CC(=O)NC(NNS(=O)(=O)c2ccc(Cl)cc2)=N1 ?
# output inactive

# input What outcome does the record of this test show for COC(=O)Cc1nc2ccccc2o1 ?
# output inactive

# input What outcome does the record of this test show for O=C1Nc2c(Cl)cc(Cl)cc2/C1=N/NC(=O)c1ccncc1 ?
# output inactive

# input What outcome does the record of this test show for O=[N+]([O-])c1cccc2nc3ccccc3c(NCCCNc3c4ccccc4nc4cccc([N+](=O)[O-])c34)c12 ?
# output active

# input What outcome does the record of this test show for COC(=O)C(CC(C)C)NC(=O)C(C)NC(=O)C(Cc1ccc(OCc2ccccc2)cc1)NC(=O)C(COCc1ccccc1)NC(=O)OC(C)(C)C (stereo not drawn) (Boc-S(Bn)Y(Bn)AL-OMe; configuration not given here) ?
# output inactive

# input What outcome does the record of this test show for CS/C(c1ccccc1)=[N+](/C)[O-] ?
# output inactive
